Test system: FLUAV-GFP
assay-info: microbe, parasite or virus in culture
details: Influenza A virus, RPE, 24 h, read-out: EC50-2 (reporter protein expression)
metric-name: EC50 (nM)
Report the figure in nM without appending any unit label.

molecule: CC[C@H]1CN2CCc3cc(OC)c(OC)cc3[C@@H]2C[C@@H]1C[C@H]1NCCc2cc(OC)c(OC)cc21 [Emetine]
test-result: 120

Lab note: next molecule to report on.
Bench note: what EC50 did COC1=CC(c2cc3ccccc3[nH]2)=N/C1=C\c1[nH]c(C)cc1C [Obatoclax] show?
100

====

Listing of entries alongside the reported CC50.
assay-info: in vitro
details: human

# annotated cases, reported CC50 shown
compound: COC(=O)C[C@](O)(CCCC(C)(C)O)C(=O)O[C@@H]1C(OC)=C[C@]23CCCN2CCc2cc4c(cc2[C@H]13)OCO4
test-result: > 30 µM
//
compound: Nc1nc(O)c2ncn(COC(CO)CO)c2n1
test-result: > 30 µM
//
compound: O=C(Nc1ccc([N+](=O)[O-])cc1Cl)c1cc(Cl)ccc1O [Niclosamide]
test-result: 1.31 µM

Consider now this further compound.
Please look up its CC50: CC[C@H]1CN2CCc3cc(OC)c(OC)cc3[C@@H]2C[C@@H]1C[C@H]1NCCc2cc(OC)c(OC)cc21
> 30 µM

Data origin: paper PMC6832696
